Test: mitochondrial permeability transition pore inhibitors, primary screen, biochemical, isolated mouse mitochondria, absorbance (AID 602449);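 also: 0% = DMSO wells given calcium and 100% = 1 mM EGTA wells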
Conditions: Ca2+ swelling absorbance, 30 min, at 10 µM, active compounds read high
Among all 360,000 compounds or so, about 5,000 (1.4%) were called active. Only a selection was taken, and actives are over-represented in it overall.
valueType: inhibition (%)
Numeric only. Scale: %

Below, each entry is followed by its recorded inhibition result.
CC(Cc1ccccc1)NCCC(c1ccccc1)c1ccccc1 (configuration not stated)    104
O=C(CN1CCCCC1)Nc1ccc(Br)cc1C(=O)c1ccccc1Cl    1.1
COc1ccc(C2NCc3ccc4c(c3-n3cccc32)OCO4)cc1OC (configuration not stated)    68
Cc1ccnc(-n2c(C)cc(/C=C3\C(=O)NC(=S)N(C)C3=O)c2C)c1    6.4
Cc1cccc(-n2c(O)c(C=NC34CN5CN(CN(C5)C3)C4)c(=O)[nH]c2=O)c1    2.5

# input What inhibition value was documented for this molecule, O=C1/C(=C\c2ccc3c(c2)OCO3)N2CCC1CC2 ?
# output -0.8

# input What about this molecule? O=C(Nc1cccc2ccccc12)N1CCC2(CC1)OCCO2
# output 0.6

# input What about this molecule? CCOc1cccc(=NC2CCCCC2)c2c(C)[nH]c(C)c12
# output 62.7

# input What about this molecule? Cc1ccc(C2CN(C)CC2C(=O)c2ccc(F)cc2)cc1 (configuration not stated)
# output -0.4

# input What about this molecule? O=C(NCC1=C(c2ccc3ccccc3c2)C[C@@H]2CC[C@H]1N2Cc1ccco1)c1cccs1
# output -1.7

# input What about this molecule? CCOc1ccc(C2SCC(=O)Nc3c2c(C)nn3C2CCOC(C)(C)C2)cc1 (configuration not stated)
# output 0.4

# input What about this molecule? C=CCn1c(O)c(/C=N/N2CCOCC2)c(=O)[nH]c1=S
# output -1.7

# input What about this molecule? CC(=O)NCC1=C(c2ccc3ccccc3c2)C[C@@H]2CC[C@H]1N2Cc1ccco1
# output -0.6

# input What about this molecule? C[C@H]1CN([C@@H](C)CO)C(=O)CCCn2nncc2CO[C@H]1CN(C)C(=O)Oc1ccccc1
# output 0.9

---

Assay: mitochondrial permeability transition pore inhibitors, primary screen, biochemical, isolated mouse mitochondria, absorbance (AID 602449);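 also: 0% = DMSO wells given calcium and 100% = 1 mM EGTA wells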
Conditions: Ca2+ swelling absorbance, 30 min, at 10 µM, active compounds read high
Out of some 360,000 compounds screened, about 5,000 (1.4%) were called active. Shown is part of a subset that was picked to be rich in actives.
Examples of compounds with documented inhibition follow.
Numeric only. Scale: %

Below, each entry is followed by its recorded inhibition result.
COc1ccc2c(c1)[C@]13CCCCC1C(C2)N(C)CC3 (stereo partly specified)    -3
Cn1c(O)c(C=NCCCC(=O)O)c(=O)n(C)c1=O    1.1
CCCCn1c(O)c(C(CC)=NCc2ccco2)c(=O)[nH]c1=O    -0.1
CSc1ccc(C(=O)C2CCCN(Cc3ccn[nH]3)C2)cc1 (stereo unspecified)    1.7

# input What inhibition value was documented for this compound, CCN(CC)C(=O)c1ccc(NC(=O)c2sccc2-c2ccccc2)cc1 ?
# output 0.3

# input What about this compound? O=Cc1cn(Cc2ccc(F)cc2Cl)c2ccccc12
# output 60.7

---

Examples of molecules with documented inhibition follow.
Experiment: mitochondrial permeability transition pore inhibitors, primary screen, biochemical, isolated mouse mitochondria, absorbance (AID 602449);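 also: 0% = DMSO wells given calcium and 100% = 1 mM EGTA wells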
Conditions: Ca2+ swelling absorbance, 30 min, at 10 µM, active compounds read high
About 5,000 (1.4%) of roughly 360,000 compounds were called active. For the sample, actives were picked, then their nearest neighbours and some compounds at random.
Numeric only. Scale: %

Cc1ccsc1C(=O)C1CCCN(Cc2ccc(O)cc2)C1 (stereo not drawn)    0.1
COc1c(O)ccc2c1-c1c3c(cc4c1C(C2)N(C)CC4)OCO3 (stereo not drawn)    -0.5

# input What inhibition value was documented for this molecule, CCN(CC)CCOC(=O)c1cc2cc(COC)ccc2o1 ?
# output -3.6
